# Protocol Text: Henry solubility constant Hcp at 293 K (mol/(m3 Pa))
# Condition Description: reference: Murphy et al. (1987)
Property Label: Henry solubility constant Hcp at 293 K
Give bare numbers.

Some compounds with known Henry solubility constant Hcp at 293 K results, for comparison:
[
  {
    "Compound": "Clc1cc(Cl)c(-c2cccc(Cl)c2Cl)cc1Cl [2,2',3,4',5'-pentachlorobiphenyl]",
    "Endpoint Result": 0.066
  },
  {
    "Compound": "Clc1cc(Cl)c(-c2c(Cl)cc(Cl)c(Cl)c2Cl)cc1Cl [2,2',3,4,4',5',6-heptachlorobiphenyl]",
    "Endpoint Result": 0.15
  },
  {
    "Compound": "Clc1ccc(-c2ccc(Cl)c(Cl)c2Cl)c(Cl)c1 [2,2',3,4,4'-pentachlorobiphenyl]",
    "Endpoint Result": 0.06
  }
]

Now let's try a different one.
Request: Respond only with Henry solubility constant Hcp at 293 K recorded for Clc1cc(Cl)c(Cl)c(-c2cc(Cl)c(Cl)cc2Cl)c1 [2,2',3,4',5,5'-hexachlorobiphenyl]
Response: 0.11
